# Test system: various cell lines of different tumor origins
# Measurement Description: Inhibition of cell proliferation, InCell Analyzer assay
# Type: cell-based
# Experimental Conditions: Homo sapiens, BV-173, BV-173, CML blast phase
# Method: C. Inhibition of Cell Proliferation For InCell Analyser assay, various cell lines of different tumor origins were grown to 70-80% confluency in appropriate culture media containing 10% fetal bovine serum at 37° C. in a 5% CO2 incubator. […] By counting the number of nuclei, the proliferation index of compound treated groups were calculated as a percentage relative to the DMSO control, which was set to 100%. The IC50 values were calculated using model 205 in ExcelFit.
pIC50: −log10 of the molar value.
Quantity: pIC50

Q. Bench note: what pIC50 did COc1cc(N2CCC(N3CCCCC3)CC2)ccc1Nc1nccc(-c2c(-c3cccc(C(=O)Nc4c(F)cccc4F)c3)nc3ccccn23)n1 [Example 22] show?
A. 5.30 to 6.00

###

# Test System: IR (NIH-3T3 cells over expressing human IGF-1R or IR) (Homo sapiens, UniProt P06213)
# Sequence (P06213 28-1382): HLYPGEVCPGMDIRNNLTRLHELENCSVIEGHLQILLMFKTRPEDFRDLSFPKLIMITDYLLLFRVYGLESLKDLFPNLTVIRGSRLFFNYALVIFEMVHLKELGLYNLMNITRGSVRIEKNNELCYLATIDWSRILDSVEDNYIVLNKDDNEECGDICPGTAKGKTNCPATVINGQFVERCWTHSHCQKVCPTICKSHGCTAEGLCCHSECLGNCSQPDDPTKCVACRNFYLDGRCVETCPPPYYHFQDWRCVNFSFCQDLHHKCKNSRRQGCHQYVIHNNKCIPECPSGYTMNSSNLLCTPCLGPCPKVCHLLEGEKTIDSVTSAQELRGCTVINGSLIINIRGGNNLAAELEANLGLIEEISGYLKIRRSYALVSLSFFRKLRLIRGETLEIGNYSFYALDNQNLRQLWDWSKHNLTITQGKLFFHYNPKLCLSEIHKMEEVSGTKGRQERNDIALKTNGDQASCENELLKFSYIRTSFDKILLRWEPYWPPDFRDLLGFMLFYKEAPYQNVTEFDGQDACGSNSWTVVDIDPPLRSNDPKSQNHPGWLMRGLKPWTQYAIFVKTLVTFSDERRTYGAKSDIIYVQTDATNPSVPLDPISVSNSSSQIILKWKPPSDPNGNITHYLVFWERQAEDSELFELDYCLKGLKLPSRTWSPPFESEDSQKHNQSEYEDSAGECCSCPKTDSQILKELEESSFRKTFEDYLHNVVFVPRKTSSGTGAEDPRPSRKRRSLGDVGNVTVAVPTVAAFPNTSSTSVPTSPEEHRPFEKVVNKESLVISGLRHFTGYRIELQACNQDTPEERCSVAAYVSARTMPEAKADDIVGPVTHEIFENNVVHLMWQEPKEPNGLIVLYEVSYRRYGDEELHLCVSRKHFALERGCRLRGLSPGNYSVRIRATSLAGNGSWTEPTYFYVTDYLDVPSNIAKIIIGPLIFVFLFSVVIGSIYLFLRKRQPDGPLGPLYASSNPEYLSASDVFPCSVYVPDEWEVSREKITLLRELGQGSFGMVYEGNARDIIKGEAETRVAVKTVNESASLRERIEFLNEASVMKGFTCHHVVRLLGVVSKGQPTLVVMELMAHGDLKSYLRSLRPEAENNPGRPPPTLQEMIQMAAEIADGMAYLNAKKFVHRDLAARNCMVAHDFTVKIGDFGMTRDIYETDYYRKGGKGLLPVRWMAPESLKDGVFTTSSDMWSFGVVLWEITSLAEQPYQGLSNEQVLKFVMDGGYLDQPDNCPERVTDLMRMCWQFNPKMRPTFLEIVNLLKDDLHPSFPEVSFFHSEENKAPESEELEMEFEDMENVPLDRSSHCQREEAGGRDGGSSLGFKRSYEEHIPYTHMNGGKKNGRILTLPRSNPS
# Measurement Description: IR cellular autophosphorylation (DELFIA)
# Experimental Conditions: NIH-3T3 cells over expressing IR, insulin stimulated
pIC50: −log10 of the molar value.
Would you kindly list pIC50 for each of these molecules?

Q. Bench note: what pIC50 did COc1cc([C@H]2CC[C@@H](N3CCN(CCS(C)(=O)=O)CC3)CC2)ccc1Nc1nccc(-c2c(-c3cccc(C(=O)Nc4c(F)cccc4F)c3)nc3ccccn23)n1 [Example 93] show?
A. > 7.00

Q. How about this molecule: CCOc1cc(N2CCC(N3CCN(CCC(F)(F)F)CC3)CC2)ccc1Nc1nccc(-c2c(-c3cccc(C(=O)Nc4c(F)cccc4F)c3)nc3ccccn23)n1 [Example 118]
A. 6.30 to 7.00

Q. How about this molecule: COc1cc(N2CCC(N3CCCCC3)CC2)c(OC)cc1Nc1nccc(-c2c(-c3cccc(C(=O)Nc4c(F)cccc4F)c3)nc3ccccn23)n1 [Example 110]
A. > 7.00

Q. How about this molecule: COc1cc(N2CCC(N3CCN(CCS(C)(=O)=O)CC3)CC2)ccc1Nc1nccc(-c2c(-c3ccc(OC)c(C(=O)Nc4c(F)cccc4F)c3)nc3ccccn23)n1 [Example 65]
A. > 7.00

Q. How about this molecule: CCc1cc(Nc2nccc(-c3c(-c4ccc(OC)c(C(=O)Nc5c(F)cccc5F)c4)nc4ccccn34)n2)c(OC)cc1N1CCC(N2CCN(S(C)(=O)=O)CC2)CC1 [Example 237]
A. > 7.00

Q. How about this molecule: CC(C)Cc1cc(N2CCC(N3CCCCC3)CC2)ccc1Nc1nccc(-c2c(-c3cccc(C(=O)Nc4c(F)cccc4F)c3)nc3ccccn23)n1 [Example 42]
A. < 6.30

###

Would you kindly list IC50 for each of these molecules?
# Test System: IR (NIH-3T3 cells over expressing human IGF-1R or IR) (Homo sapiens, UniProt P06213)
# Measurement Description: IR cellular autophosphorylation (DELFIA)
# Experimental Conditions: NIH-3T3 cells over expressing IR, insulin stimulated
# Procedure: D. IGF-1R and IR Cellular Autophosphorylation (DELFIA) NIH-3T3 cells over expressing human IGF-1R or IR were plated in 96-well plates (10,000 cells/well) in culture media containing 10% fetal bovine serum and incubated at 37° C. in a 5% CO2 incubator. […] The fluorescence signal for cells treated with compounds was expressed as percent relative to 100% stimulation (IGF-1 or insulin stimulated signal). […]

Q. Bench note: what IC50 did CCCN1CCN(c2ccc(Nc3nccc(-c4c(-c5ccc(OCC)c(C(=O)Nc6c(F)cccc6F)c5)nc5ccccn45)n3)c(OC)c2)CC1 show?
A. < 100 nM

Q. How about this molecule: CCOc1cc(N2CCN(C(C)C)CC2)ccc1Nc1nccc(-c2c(-c3ccc(OC)c(C(=O)Nc4c(F)cccc4F)c3)nc3ccccn23)n1
A. < 100 nM

Q. How about this molecule: COc1cc(N2CCC(N3CCCN(C)CC3)CC2)ccc1Nc1nccc(-c2c(-c3cccc(C(=O)Nc4c(F)cccc4F)c3)nc3ccccn23)n1
A. 100 to 500 nM

Q. How about this molecule: COc1cc(N2CCC(N3CCN(S(C)(=O)=O)CC3)CC2)ccc1Nc1nccc(-c2c(-c3ccc(OC)c(C(=O)Nc4c(F)cccc4F)c3)nc3cc(F)ccn23)n1
A. < 100 nM

Q. How about this molecule: CCN1CCN(C2CCN(c3ccc(Nc4nccc(-c5c(-c6cccc(C(=O)Nc7c(F)cccc7F)c6)nc6ccccn56)n4)c(OC)c3)CC2)CC1
A. < 100 nM

Q. How about this molecule: COc1cc(N2CCC(N3CCCCC3)CC2)ccc1Nc1nccc(-c2c(-c3ccc(OC)c(C(=O)Nc4c(F)cccc4F)c3)nc3cc(F)ccn23)n1
A. < 100 nM

Q. How about this molecule: COc1cc(N2CCC(CCS(C)(=O)=O)CC2)c(C)cc1Nc1nccc(-c2c(-c3cccc(C(=O)Nc4c(F)cccc4F)c3)nc3ccccn23)n1
A. < 100 nM

Q. How about this molecule: CCc1cc(Nc2nccc(-c3c(-c4cccc(C(=O)Nc5c(F)cccc5F)c4)nc4ccccn34)n2)c(OC)cc1N1CCC(N2CCN(S(C)(=O)=O)CC2)CC1
A. < 100 nM

Q. How about this molecule: CCCN1CCC(c2ccc(Nc3nccc(-c4c(-c5ccc(OCC)c(C(=O)Nc6c(F)cccc6F)c5)nc5ccccn45)n3)c(OCC)c2)CC1
A. < 100 nM

Q. How about this molecule: COc1cc(N2CCC(N3CCC[C@H](O)C3)CC2)ccc1Nc1nccc(-c2c(-c3cccc(C(=O)Nc4c(F)cccc4F)c3)nc3ccccn23)n1
A. 100 to 500 nM

Q. How about this molecule: CCOc1ccc(-c2nc3ccccn3c2-c2ccnc(Nc3cc(C)c(N4CCC(CCS(C)(=O)=O)CC4)cc3OC)n2)cc1C(=O)Nc1c(F)cccc1F
A. < 100 nM

Q. How about this molecule: COc1cc(N2CCC(N3CCC(F)CC3)CC2)ccc1Nc1nccc(-c2c(-c3cccc(C(=O)Nc4c(F)cccc4F)c3)nc3ccccn23)n1
A. 100 to 500 nM

Q. How about this molecule: COc1cc(N2CCN3CCOC[C@@H]3C2)ccc1Nc1nccc(-c2c(-c3cccc(C(=O)Nc4c(F)cccc4F)c3)nc3ccccn23)n1
A. < 100 nM
